These entries and their values trace back to patent US20180021429A1.

Please respond with reported Dissociation amount (RU) for every item in the list.
- tested-system: T1, human FSTL1 (construct not stated) (human, UniProt Q12841 21-308)
- T1 construct: also called human FSTL1 antigen; FSTL1 (R&D Systems, Inc. Cat#1694-FN-050)
- T1 sequence: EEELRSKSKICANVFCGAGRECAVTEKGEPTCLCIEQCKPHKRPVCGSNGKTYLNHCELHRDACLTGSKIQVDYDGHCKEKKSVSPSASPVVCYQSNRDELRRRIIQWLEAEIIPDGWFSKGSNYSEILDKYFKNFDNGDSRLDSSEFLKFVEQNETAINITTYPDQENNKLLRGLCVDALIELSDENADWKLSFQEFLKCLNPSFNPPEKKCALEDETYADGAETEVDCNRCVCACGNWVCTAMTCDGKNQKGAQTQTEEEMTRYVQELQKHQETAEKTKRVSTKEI
- measurement-protocol: SPR (Biacore T-200), captured antibody, human FSTL1 10 µg/ml; note: time not given here
- Method: The mouse chimeric antibodies were immobilized onto Sensor Chip CM5 (GE Healthcare Japan Corp., BR-1005-30) using Mouse Antibody Capture Kit (GE Healthcare Japan Corp., BR-1008-38), and their affinity for human FSTL1 was calculated using Biacore T-200 (GE Healthcare Japan Corp.). First, the exhaustive activity comparison of the obtained antibodies was conducted with the human FSTL1 concentration fixed to 10 μg/ml (Table 33-1, FIG. 28).
Numbers only, in RU.

anti-FSTL1 antibody clone #13 (chicken-mouse chimeric antibody) (antibody, mouse IgG1, kappa, V domains shown) VH: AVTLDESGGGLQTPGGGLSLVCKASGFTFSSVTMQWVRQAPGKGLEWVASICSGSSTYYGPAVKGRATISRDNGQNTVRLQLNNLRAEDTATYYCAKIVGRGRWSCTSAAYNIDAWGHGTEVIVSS VL: ASTQPSSVSANPGETVKITCSGGGNNYGWYQQKSPGSAPVTVIYNNNNRPSNIPSRFSGSKSGSTNTLTITGVQAEDEAVYYCGSYDSSSDSGIFGAGTTLTVLG    0.2
anti-FSTL1 antibody clone #8-7 (chicken-mouse chimeric antibody) (antibody, mouse IgG1, kappa, V domains shown) VH: AVTLDESGGGLQTPGGGLSLVCKGSGFTFSSFNMFWVRQAPGKGLEWVAGIGKDGVPKYGAAVDGRATISKDNGQSTLRLQLNNLRAEDTGTYFCAKAAGGCSYDWCGIYAGDIDTWGHGTEVIVSS VL: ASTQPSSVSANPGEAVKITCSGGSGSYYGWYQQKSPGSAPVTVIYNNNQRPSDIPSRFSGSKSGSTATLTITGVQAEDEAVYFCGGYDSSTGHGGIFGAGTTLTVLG    11.8
anti-FSTL1 antibody clone #5-43 (chicken-mouse chimeric antibody) (antibody, mouse IgG1, kappa, V domains shown) VH: AVTLDESGGGLQTPGGGLSLVCKGSGFTFSSFNMFWVRQAPGKGLEWVAGIGKDGGTGYGAAVDGRATISKDSGQSTLRLQLNNLRAEDTGTYYCAKAAGGCSYDWCGAYTGDIDTWGHGTEVIVSS VL: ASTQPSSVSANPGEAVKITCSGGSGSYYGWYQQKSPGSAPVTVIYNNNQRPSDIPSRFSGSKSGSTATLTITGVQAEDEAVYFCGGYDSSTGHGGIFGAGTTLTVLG    3.1
anti-FSTL1 antibody clone #5-8 (chicken-mouse chimeric antibody) (antibody, mouse IgG1, kappa, V domains shown) VH: AVTLDESGGGLQTPGGGLSLVCKGSGFTFSSFNMFWVRQAPGKGLEWVAGIGKDGVPKYGTAVDGRATISKDNGQSTMRLQLNNLRAEDTGTYFCAKAAGGCSYDWCGIYTGDIDTWGHGTEVIVSS VL: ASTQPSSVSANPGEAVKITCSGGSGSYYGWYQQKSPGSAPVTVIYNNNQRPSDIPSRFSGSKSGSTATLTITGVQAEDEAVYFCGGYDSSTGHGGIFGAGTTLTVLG    3.4
anti-FSTL1 antibody clone #33 (chicken-mouse chimeric antibody) (antibody, mouse IgG1, kappa, V domains shown) VH: AVTLDESGGGLQTPGGGLSLVCKASGFTFSSFNMNWVRQAPGKGLEYVAEISGTGSSTYYGSAVKGRATISRDNGQSTVRLQLNNLRAEDTATYFCARGDGAYSIDAWGHGTEVIVSS VL: ASTQPSSVSANPGETVEITCSGDSSYYGWFQQKSPGSAPVTVIYDNTNRPSDIPSRFSGSKSGSTATLTITGVRAEDEAVYYCGGYDSSTYDGIFGAGTTLTVLG    4.1

Next item in the queue.
Quick one: Dissociation amount (RU) for anti-FSTL1 antibody clone #8-4 (chicken-mouse chimeric antibody) (antibody, mouse IgG1, kappa, V domains shown) VH: AVTLDESGGGLQTPGGGLSLVCKGSGFTLSSFNMFWVRQAPGKGLEWVAGVGKDGGTAYGAAVDGRATISRDSGQSTVRLQLNNLRAEDTGTYFCAKAAGGCSYSWCGAYVGDLDAWGHGTEVIVSS VL: ASSQPSSVSANPGETVKITCSGGSGYYYGWYQQKSPGSAPVTVIYNNDNKPSDIPSRFSGSKSGSTGTLTITGVQVEDEAVYFCGGYDNSGTGIFGAGTTLTVLG ?
6.2
